Test system: D425
TEST DESCRIPTION: PrestoBlue cell viability, 72-hour treatment, limiting dilution
Assay type: cell-based
RUN CONDITIONS: Homo sapiens, read-out: BAY2402234 IC50; D425, G3MB-MYC
REPORTED ENDPOINT: pIC50
One number for each entry, as −log10 of the molar value.

Look up pIC50 for this molecule: CCn1c(CO)nn(-c2cc(O[C@@H](C)C(F)(F)F)c(C(=O)Nc3c(F)cccc3Cl)cc2F)c1=O 9.31

----------
Test system: D458
TEST DESCRIPTION: PrestoBlue cell viability, 72-hour treatment, limiting dilution
Assay type: cell-based
RUN CONDITIONS: Homo sapiens, read-out: BAY2402234 IC50; D458, G3MB-MYC
REPORTED ENDPOINT: IC50 (nM)
One number for each entry, in nM.

# IC50 lookup, item CCn1c(CO)nn(-c2cc(O[C@@H](C)C(F)(F)F)c(C(=O)Nc3c(F)cccc3Cl)cc2F)c1=O [BAY2402234] 0.26
